Binary call on melting point: YES from 50 °C upward, NO beneath that.

Solved entries:
>>> print(df.to_string())
                                 smiles_str  classification
0               C[Si](C)(C)N=C=N[Si](C)(C)C              NO
1  CC(C=CC=CC(C)=CC=CC(C)=CC=C1C(C)=CC(=O)CC1(C)C)=CC=CC(C)=CC=C1C(C)=CC(=O)CC1(C)C             YES
2               CCC(c1ccc(O)cc1)c1ccc(O)cc1             YES
3                       CCCCN(CCCC)c1ccccc1              NO

Okay, now this compound:
Query :: Is the recorded value of melting point equal to or greater than 50 °C for this compound? `Cc1cccc(C)c1C(=O)O`
Result :: YES

---

RECORDED CONDITIONS: fish
PROPERTY MEASURED: log10 biotransformation half-life (days)
Output: the number by itself.

Use the examples below as a reference point.
>>> df
                                 smiles_str                         property_measured  endpoint_value
0     Clc1ccc(Cl)c(-c2c(Cl)ccc(Cl)c2Cl)c1Cl  log10 biotransformation half-life (days)            2.34
1                    c1cc2c(c3c1CCCC3)CCCC2  log10 biotransformation half-life (days)            0.76
2  CC(C)Oc1cc(-n2nc(C(C)(C)C)oc2=O)c(Cl)cc1Cl  log10 biotransformation half-life (days)            0.77
3       Clc1cc(Cl)c(Cl)c(-c2cccc(Cl)c2Cl)c1  log10 biotransformation half-life (days)            2.44

Next:
Query :: Answer with the recorded log10 biotransformation half-life (days) of `ClC1CCCCC1` only.
Result :: 0.41

---

// melting point lookup, one value per entry
Express your answer in °C, writing the number without its unit.

Use the examples below as a reference point.
>>> df
                                   compound  endpoint_value
0  CCCCCCCCCCCCN1CC(C(=O)OC)CC1=O (centres undefined)            27.5
1                            N#Cc1cccc(O)c1              80
2         CCCC(O)C(=O)O (centres undefined)              34

Next:
Query :: Answer with the recorded melting point of `CCCCCCCCCCCCCCCN` only.
Result :: 37.3

---

PROPERTY MEASURED: melting point (°C)
Express your answer in °C, writing the number without its unit.

>>> df
                                 smiles_str  endpoint_value
0            NS(=O)(=O)c1ccccc1[N+](=O)[O-]             191
1  CCn1cc(C(=O)O)c(=O)c2cc(F)c(N3CCNCC3)cc21             228
2                        CC(C)(C)SSC(C)(C)C              -5

Query :: Answer with the recorded melting point of `c1ccc2c(Oc3cccc4ccccc34)cccc2c1` only.
Result :: 110

Query :: Answer with the recorded melting point of `Nc1nc(=O)cc(Cl)[nH]1` only.
Result :: 262

Query :: Answer with the recorded melting point of `O=[N+]([O-])c1c(Cl)c(Cl)cc(Cl)c1Cl` only.
Result :: 99.5
